assay-system: Glucose-dependent insulinotropic receptor (Homo sapiens)
procedure-text: Agonist activity at human recombinant GPR119 expressed in HEK293 cells co-expressing pCRE-Luc at 10 uM after 6 hrs by cAMP reporter assay relative to 2-(2-(4-bromophenyl)-6-methylpyrimidin-4-ylamino)ethanol
Assay type: functional, cell-based
measured-attribute: Intrinsic activity (%)

Use the examples below as a reference point.
>>> numeric_value("Fc1cc(-c2nc3c(c(N4CCOCC4)n2)COC3)c(F)cc1Cl")
205
>>> numeric_value("CN(C)C(=O)C1CCN(c2nc(-c3cc(F)c(Cl)cc3F)nc3c2CS(=O)(=O)C3)CC1")
292
>>> numeric_value("NC(=O)CCC1CCN(c2nc(-c3cc(F)c(Cl)cc3F)nc3c2CS(=O)(=O)C3)CC1")
627
>>> numeric_value("O=S1(=O)Cc2nc(-c3cc(F)c(Cl)cc3F)nc(N3CCC(CO)CC3)c2C1")
501
>>> numeric_value("O=S1(=O)Cc2nc(-c3cc(F)c(Cl)cc3F)nc(N3CCOCC3)c2C1")
668
>>> numeric_value("NC(=O)C1CCN(c2nc(-c3cc(F)c(Cl)cc3F)nc3c2CS(=O)(=O)C3)CC1")
294
>>> numeric_value("Fc1cc(-c2nc3c(c(N4CCOCC4)n2)CCC3)c(F)cc1Cl")
405
>>> numeric_value("Fc1cc(-c2nc3c(c(N4CCOCC4)n2)CCCC3)c(F)cc1Cl")
313
>>> numeric_value("NC(=O)CN1CCN(c2nc(-c3cc(F)c(Cl)cc3F)nc3c2CS(=O)(=O)C3)CC1")
737
>>> numeric_value("O=S1(=O)Cc2nc(-c3cc(F)c(Cl)cc3F)nc(N3CCC(CCO)CC3)c2C1")
506

(a) O=C(O)C1CCN(c2nc(-c3cc(F)c(Cl)cc3F)nc3c2CS(=O)(=O)C3)CC1
(b) Fc1cc(-c2nc3c(c(N4CCOCC4)n2)CCS3)c(F)cc1Cl
QUERY: # query: argmin of Intrinsic activity over a and b Let me know the label of the one you choose.
RESULT: b
(b: 258%, a: 528%)

---

procedure-text: Solubility of compound at pH 6.8 after 20 hrs by precipitation method
Assay type: physicochemical
experimental-setup: buffer
measured-attribute: solubility kinetic at 20 h (µM)

Worked examples follow.
>>> numeric_value("O=S1(=O)Cc2nc(-c3cc(F)c(Cl)cc3F)nc(N3CCC(CCO)CC3)c2C1")
23
>>> numeric_value("CNC(=O)C1CCN(c2nc(-c3cc(F)c(Cl)cc3F)nc3c2CS(=O)(=O)C3)CC1")
11
>>> numeric_value("NC(=O)C1CCN(c2nc(-c3cc(F)c(Cl)cc3F)nc3c2CS(=O)(=O)C3)CC1")
40
>>> numeric_value("O=S1(=O)Cc2nc(-c3cc(F)c(Cl)cc3F)nc(N3CCC(CO)CC3)c2C1")
16

(I) NC(=O)CC1CCN(c2nc(-c3cc(F)c(Cl)cc3F)nc3c2CS(=O)(=O)C3)CC1
(II) NC(=O)CCC1CCN(c2nc(-c3cc(F)c(Cl)cc3F)nc3c2CS(=O)(=O)C3)CC1
(III) O=S1(=O)Cc2nc(-c3cc(F)c(Cl)cc3F)nc(N3CCC(O)CC3)c2C1
QUERY: Hey, quick one: sort these by solubility kinetic at 20 h, low to high? List each label, following the requested order.
RESULT: II, I, III
(II: 8 µM, I: 15 µM, III: 91 µM)
